Target: human β3 adrenergic receptor (Homo sapiens, UniProt P13945)
Construct: expressed in transfected cells; host or cells: DXB-11 Chinese hamster ovary (CHO) cell line, stably transfected (phd expression vector)
Sequence (P13945 whole entry): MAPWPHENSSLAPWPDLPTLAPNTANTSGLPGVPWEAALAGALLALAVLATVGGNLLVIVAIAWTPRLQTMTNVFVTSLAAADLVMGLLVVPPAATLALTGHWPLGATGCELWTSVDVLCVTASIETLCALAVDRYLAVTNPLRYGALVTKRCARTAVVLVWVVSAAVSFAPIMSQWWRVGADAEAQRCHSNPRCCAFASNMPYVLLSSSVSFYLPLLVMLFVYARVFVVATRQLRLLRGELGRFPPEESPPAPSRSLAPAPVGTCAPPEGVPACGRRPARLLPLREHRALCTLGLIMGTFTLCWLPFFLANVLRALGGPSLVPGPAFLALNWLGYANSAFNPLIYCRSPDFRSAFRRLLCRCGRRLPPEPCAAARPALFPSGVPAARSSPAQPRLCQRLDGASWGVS
Assay: whole cell receptor coupled c-AMP assay, human β3 receptor in CHO cells (EC50, Emax relative to isoproterenol)
Assay type: cell-based
Conditions: Emax ± standard error of the mean; average of at least 3 runs except where n = 1; compound tested in the isolated form listed
Procedure: […] Cells from each of the above cell lines are resuspended and added (20,000/well) to a 96-well plate. […] After halting the incubation with quench buffer (50 mM Na Acetate, 0.25% Triton X-100, pH 5.8), the c-AMP level is quantified by scintillation proximity assay (SPA) using a modification of the commercially available c-AMP kit (Amersham, Arlington Heights, Ill.) with rabbit anti-cAMP antibody (ICN Biomedicals, Aurora, Ohio) for the kit. […]
reported metric: Emax (%) ± SEM
Numbers only, in %.

# annotated cases, reported Emax (%) ± SEM shown
• Cc1nc(-c2ccccc2OC[C@@H](O)CNC(C)(C)Cc2ccc(Oc3ncccc3C(N)=O)cc2)[nH]c1C.Cl.Cl = 63.6
• Cn1ccc(-c2ccccc2OC[C@@H](O)CNC(C)(C)Cc2ccc(Oc3ncccc3C#N)cc2)n1 = 55.0

For each listed entry, give its Emax (%) ± SEM.
1. CC(C)(Cc1ccc(Oc2ccncc2)cc1)NC[C@H](O)COc1ccccc1-c1nccs1.O=C(O)C(F)(F)F
2. CC(C)(Cc1ccc(Oc2ccc(C#N)cn2)cc1)NC[C@H](O)COc1ccccc1-c1ccncn1
3. CC(C)(Cc1ccc(Oc2ncccn2)cc1)NC[C@H](O)COc1ccccc1-c1cscn1.Cl
4. CC(C)(Cc1ccc(Oc2ccc(Cl)nn2)cc1)NC[C@H](O)COc1ccccc1-c1ccns1.O=C(O)C(F)(F)F
5. COC(=O)c1ccc(Oc2ccc(CC(C)(C)NC[C@H](O)COc3ccccc3-c3nccs3)cc2)c(Cl)c1
6. CC(C)(Cc1ccc(Oc2ccc(Cl)cn2)cc1)NC[C@H](O)COc1ccccc1-c1ccno1.O=C(O)C(F)(F)F

1: 57.8; 2: 35.1; 3: 49.9; 4: 88.5; 5: 48.9; 6: 43.3

For each listed entry, give its Emax (%) ± SEM.
1. CC(C)(Cc1ccc(Oc2ncccc2C#N)cc1)NC[C@H](O)COc1ccccc1-c1cc2ccccc2[nH]1
2. CC(C)(Cc1ccc(Oc2ncccc2C#N)cc1)NC[C@H](O)COc1ccccc1-c1cscn1.Cl
3. CC(C)(Cc1ccc(Oc2ccccc2C(N)=O)cc1)NC[C@H](O)COc1ccc(F)cc1-c1cccs1.O=C(O)C(F)(F)F
4. CC(C)(Cc1ccc(Oc2cccnc2C#N)cc1)NC[C@H](O)COc1ccccc1-n1cccc1.Cl

[30.1, 49.8, 51.3, 54.6]

----------
Target: human β3 adrenergic receptor (Homo sapiens)
Construct: expressed in transfected cells; host or cells: DXB-11 Chinese hamster ovary (CHO) cell line, stably transfected (phd expression vector)
Assay: whole cell receptor coupled c-AMP assay, human β3 receptor in CHO cells (EC50, Emax relative to isoproterenol)
Format: cell-based
Settings: Emax ± standard error of the mean; average of at least 3 runs except where n = 1; compound tested in the isolated form listed
reported metric: Emax (%) ± SEM
Give bare numbers, in %.

* CC(C)(Cc1ccc(Oc2ccc(S(C)(=O)=O)cc2F)cc1)NC[C@H](O)COc1ccccc1-c1cscn1.Cl [Example 250] | 31.6

Continue with the molecule presented below.
Which value of Emax (%) ± SEM has been reported for CC(C)(Cc1ccc(Oc2cccc(Cl)c2C(N)=O)cc1)NC[C@H](O)COc1ccccc1-c1cscn1.Cl [Example 246] in the records?
52.1

----------
Hi there, I'd appreciate the recorded Emax (%) ± SEM for every entry that follows.
Biological target: human β3 adrenergic receptor (Homo sapiens, UniProt P13945)
Construct: expressed in transfected cells; host or cells: DXB-11 Chinese hamster ovary (CHO) cell line, stably transfected (phd expression vector)
Assay: whole cell receptor coupled c-AMP assay, human β3 receptor in CHO cells (EC50, Emax relative to isoproterenol)
Assay type: cell-based
Details: Emax ± standard error of the mean; average of at least 3 runs except where n = 1; compound tested in the isolated form listed
Answers are plain numbers, in %.

# annotated cases, reported Emax (%) ± SEM shown
- CC(C)(Cc1ccc(Oc2ccncc2)cc1)NC[C@H](O)COc1ccccc1-c1ccno1.O=C(O)C(F)(F)F: 39.9
- CC(C)(Cc1ccc(Oc2ccc(S(C)(=O)=O)cc2)cc1)NC[C@H](O)COc1ccccc1-c1cscn1.Cl: 35.9
- CC(C)(Cc1ccc(Oc2ccc(C(F)(F)F)cn2)cc1)NC[C@H](O)COc1ccccc1-c1cccs1.O=C(O)C(F)(F)F: 73.5

For each listed entry, give its Emax (%) ± SEM.
1. CCOC(=O)c1cccnc1Oc1ccc(CC(C)(C)NC[C@H](O)COc2ccccc2-c2ccno2)cc1.O=C(O)C(F)(F)F
2. CC(C)(Cc1ccc(Oc2cccnc2C#N)cc1)NC[C@H](O)COc1ccccc1-c1ccns1.O=C(O)C(F)(F)F
3. CC(C)(Cc1ccc(Oc2ccc(C(N)=O)cc2F)cc1)NC[C@H](O)COc1ccccc1-c1cccs1.O=C(O)C(F)(F)F

[56.9, 58.9, 54.5]

----------
Target: human β3 adrenergic receptor (Homo sapiens, UniProt P13945)
Construct: expressed in transfected cells; host or cells: DXB-11 Chinese hamster ovary (CHO) cell line, stably transfected (phd expression vector)
Test: whole cell receptor coupled c-AMP assay, human β3 receptor in CHO cells (EC50, Emax relative to isoproterenol)
Type: cell-based
Conditions: Emax ± standard error of the mean; average of at least 3 runs except where n = 1; compound tested in the isolated form listed
Hi there, I'd appreciate the recorded Emax (%) ± SEM for every entry that follows.
Answers are plain numbers, in %.

- CC(C)(Cc1ccc(Oc2ncccc2C(N)=O)cc1)NC[C@H](O)COc1ccccc1-c1nc2ccccc2s1 [Example 82]: 45.9
- CC1(C)COC(c2ccccc2OC[C@@H](O)CNC(C)(C)Cc2ccc(Oc3ccc(C(N)=O)cn3)cc2)=N1 [Example 28]: 83.4
- CC(C)(Cc1ccc(Oc2ncc(C(F)(F)F)cc2Cl)cc1)NC[C@H](O)COc1ccccc1-c1ccno1.O=C(O)C(F)(F)F [Example 160]: 56.3
- CC(C)(Cc1ccc(Oc2ncccc2C#N)cc1)NC[C@H](O)COc1ccccc1-c1ccnc(N)n1 [Example 61]: 32.8
- CC(C)(Cc1ccc(Oc2ccc(C(N)=O)cn2)cc1)NC[C@H](O)COc1ccccc1-n1ccc(C=O)c1 [Example 274]: 38.8

For each listed entry, give its Emax (%) ± SEM.
1. CC(C)(Cc1ccc(Oc2ncccc2C(N)=O)cc1)NC[C@H](O)COc1ccccc1-c1cccs1 [Example 68]
2. CC(C)(Cc1ccc(Oc2ccc(C#N)nc2)cc1)NC[C@H](O)COc1ccccc1-c1ccno1.O=C(O)C(F)(F)F [Example 221]
3. CC(C)(Cc1ccc(Oc2ccc(C#N)cc2)cc1)NC[C@H](O)COc1ccccc1-c1ccno1.O=C(O)C(F)(F)F [Example 121]
4. CC(C)(Cc1ccc(Oc2ccc(C(N)=O)o2)cc1)NC[C@H](O)COc1ccccc1-c1cscn1.Cl [Example 261]
5. CC(C)(Cc1ccc(Oc2ncccc2C(N)=O)cc1)NC[C@H](O)COc1ccccc1-c1ccns1.O=C(O)C(=O)O [Example 96]
6. CC(C)(Cc1ccc(Oc2ccc(C(N)=O)cn2)cc1)NC[C@H](O)COc1ccccc1-c1nccs1 [Example 17]
7. CC(C)(Cc1ccc(Oc2cnccn2)cc1)NC[C@H](O)COc1ccccc1-c1cccs1.O=C(O)C(F)(F)F [Example 153]
8. CC(C)(Cc1ccc(Oc2ncccc2C#N)cc1)NC[C@H](O)COc1ccc(F)cc1-c1cccs1.O=C(O)C(=O)O [Example 63]

83.7
40.8
38.9
52.3
78.1
62.9
66.8
52.6

For each listed entry, give its Emax (%) ± SEM.
1. CC(C)(Cc1ccc(Oc2ccc(S(C)(=O)=O)cc2)cc1)NC[C@H](O)COc1ccccc1-c1cccs1.O=C(O)C(F)(F)F [Example 129]
2. CC(C)(Cc1ccc(Oc2ncccc2C(N)=O)cc1)NC[C@H](O)COc1ccccc1-c1nccs1.Cl [Example 71]
3. CC(C)(Cc1ccc(Oc2ccc(C#N)cn2)cc1)NC[C@H](O)COc1ccccc1-c1cnco1.Cl [Example 13]
4. CC(C)(Cc1ccc(Oc2cccnc2C#N)cc1)NC[C@H](O)COc1ccccc1-c1ccno1.O=C(O)C(F)(F)F [Example 146]
5. CC(C)(Cc1ccc(Oc2cccnc2C(N)=O)cc1)NC[C@H](O)COc1ccccc1-c1cccs1.O=C(O)C(F)(F)F [Example 196]
6. CC(C)(Cc1ccc(Oc2ccc(C(N)=O)cn2)cc1)NC[C@H](O)COc1ccccc1-c1ccncn1 [Example 75]

53.2
65.6
54.8
58.7
74.4
40.3

For each listed entry, give its Emax (%) ± SEM.
1. CCOC(=O)c1cccnc1Oc1ccc(CC(C)(C)NC[C@H](O)COc2ccccc2-c2nccs2)cc1 [Example 109]
2. CC1(C)COC(c2ccccc2OC[C@@H](O)CNC(C)(C)Cc2ccc(Oc3ncccc3C(N)=O)cc2)=N1.Cl [Example 83]
3. CC(C)(Cc1ccc(Oc2ncccc2C(N)=O)cc1)NC[C@H](O)COc1ccccc1-c1csnn1.O=C(O)C(=O)O [Example 98]

[61.4, 83.5, 39.2]

# credit: patent US6730792B2
